- experimentSummary: Lethal dose in mice after perorla administration
- Assay type: toxicity, organism-based
- assaySetup: mouse, in vivo, po
Listed here: items and their measured LD50.

Input: Return reported LD50; argument: CN1CCN(C2=Nc3ccc(C(F)(F)F)cc3Nc3cscc32)CC1
Output: 600 mg/kg

Input: Return reported LD50; argument: CN1CCN(c2cccc3c2N=C2SC=CC2N=C3)CC1 (stereo unspecified)
Output: > 50 mg/kg

Input: Return reported LD50; argument: Cc1scc2c1C(N1CCN(C)CC1)=Nc1ccccc1N2
Output: > 400 mg/kg

---
Input: Return reported LD50; argument: Cc1cc2c(s1)C(N1CCN(C)CC1)=Nc1cc(F)ccc1N2
Output: 150 mg/kg

Input: Return reported LD50; argument: c1ccc2c(c1)N=C(N1CCNCC1)c1cscc1N2
Output: > 400 mg/kg

Input: Return reported LD50; argument: c1ccc(CN2CCN(C3=Nc4ccccc4Nc4ccsc43)CC2)cc1
Output: > 400 mg/kg

----------
- experimentSummary: Lethal dose in mice after perorla administration
- Format: toxicity, organism-based
- assaySetup: mouse, in vivo, po
measurementName: LD50 (mg/kg)
Give the value in mg/kg but do not write mg/kg after it.

Use these answered entries as a reference point.
Input: Return reported LD50; argument: CN1CCN(C2=NC3=CSCC3=Nc3ccccc32)CC1
Output: 50

Input: Return reported LD50; argument: CN1CCN(C2=Nc3ccccc3N(C)c3cscc32)CC1
Output: 150

Input: Return reported LD50; argument: c1ccc2c(c1)N=C(N1CCNCC1)c1sccc1N2
Output: 400

Input: Return reported LD50; argument: Fc1ccc2c(c1)N=C(N1CCNCC1)c1sccc1N2
Output: 400

Input: Return reported LD50; argument: CN1CCN(C2=Nc3cc(Cl)ccc3Nc3cscc32)CC1
Output: 75

---
Input: Return reported LD50; argument: Fc1ccc2c(c1)N=C(N1CCNCC1)c1cscc1N2
Output: 600

Input: Return reported LD50; argument: CN1CCN(C2=Nc3cc(Cl)c(Cl)cc3Nc3cscc32)CC1
Output: 400

Input: Return reported LD50; argument: CSc1ccc2c(c1)N=C(N1CCN(C)CC1)c1cscc1N2
Output: 400

Input: Return reported LD50; argument: CN1CCN(C2=Nc3ccccc3Nc3cscc32)CC1
Output: 150

Input: Return reported LD50; argument: CN1CCN(C2=Nc3ccccc3Nc3ccsc32)CC1
Output: 100

Input: Return reported LD50; argument: c1ccc(CN2CCN(C3=Nc4ccccc4Nc4cscc43)CC2)cc1
Output: 800

Input: Return reported LD50; argument: O=CN1CCN(C2=Nc3ccccc3N(C=O)c3cscc32)CC1
Output: 400

Input: Return reported LD50; argument: CN1CCN(C2=Nc3cc(F)ccc3Nc3cscc32)CC1
Output: 100

Input: Return reported LD50; argument: COc1ccc2c(c1)N=C(N1CCN(C)CC1)c1cscc1N2
Output: 200

----------
- experimentSummary: Lethal dose in mice after perorla administration
- Type: toxicity, organism-based
- assaySetup: mouse, in vivo, po
Listed here: items and their measured LD50.
Give the value in mg/kg but do not write mg/kg after it.

Input: Return reported LD50; argument: Cc1scc2c1Nc1ccccc1N=C2N1CCN(C)CC1
Output: 200

Lab note: next compound to report on.
Input: Return reported LD50; argument: CN1CCN(C2=Nc3cc(Cl)ccc3Nc3ccsc32)CC1
Output: 50
